# Test system: MDA-MB-435 melanoma
# EXPERIMENTAL_PROTOCOL: NCI-60 one-dose screen, 48 h
# PARTICULARS: 10 µM unless noted
About 83,000 compounds went through this panel and 20% of them were active in at least one assay; those are over-represented in the sample as a whole. Activity calls are given as the source filed them. Rule for the calls: active = growth percent below 10; inactive = the rest.
Hi there, use one of these labels in your reply, thanks! t for active, f for inactive

Ask: # outcome recorded in this test, key = "O=C1C(=O)c2c(nc3ccc(C(F)(F)F)cn23)-c2ccccc21"
Reply: t

Ask: # outcome recorded in this test, key = "COc1cccc(NC(=O)Nc2ccc(Nc3ncnc4[nH]c(C)c(C)c34)cc2)c1"
Reply: f

Ask: # outcome recorded in this test, key = COC(=O)c1cc2c3c(cc(O)c2[nH]1)N(C(=O)C1Cc2cc(OC)c(OC)c(OC)c2N1)CC3CCl (centres undefined)
Reply: t

Ask: # outcome recorded in this test, key = "O=C(Nc1cc(=O)[nH]c(=O)[nH]1)C(Cl)Cl"
Reply: f

Ask: # outcome recorded in this test, key = "COc1ccc(NC(=O)c2sc3nc(C)c(C(C)=O)cc3c2N)cc1"
Reply: f

Ask: # outcome recorded in this test, key = "COc1cc(C(=O)Nc2cc(OC)c3ccn(C)c3c2)cc2c1C[C@]1(C)CC[C@@H](O)C(C)(C)[C@H]1O2"
Reply: t

Ask: # outcome recorded in this test, key = "Oc1ccccc1-c1nc2c3ccccc3c3ccccc3c2o1"
Reply: f

Ask: # outcome recorded in this test, key = "Nc1c(C(=O)Nc2cccc3ccccc23)sc2nc3c(cc12)CCCCC3"
Reply: t

Ask: # outcome recorded in this test, key = COc1ccc2c(c1)C1(C(=O)N2)C(C#N)=C(c2ccccc2)Nc2c1c(-c1ccccc1)nn2-c1ccccc1 (centres undefined)
Reply: f

###

# System: BT-549 breast
# EXPERIMENTAL_PROTOCOL: NCI-60 one-dose screen, 48 h
# PARTICULARS: 10 µM unless noted
# Experimental: Growth inhibition of the BT-549 human tumor cell line is measured as a screen for anti-cancer activity. Cells are grown in 96 well plates and exposed to the test compound for 48 hours. Compounds are tested at a single concentration, which is 10^-5 M for most compounds. The reported endpoint is percent growth (GI% or GIPRCNT), where numbers from 0 - 100% represent growth inhibition, and numbers from -100% - 0 represent cell death. For example, a value of 40 represents 60% growth inhibition. […]
The panel holds about 83,000 compounds, 20% with a hit somewhere; the sample as a whole holds those more often. Active and inactive are the calls of the source. Rule for the calls: active = growth percent below 10; inactive = the rest.
Hi there, use one of these labels in your reply, thanks! Yes for active, No for inactive

Ask: # outcome recorded in this test, key = "O=C(Nc1ccc2ncnc(Nc3ccc(F)c(Cl)c3)c2c1)c1ccccc1"
Reply: No

Ask: # outcome recorded in this test, key = "C=C1C(=O)O[C@H]2[C@H]1CC/C(COC(=O)Nc1nc3ccccc3[nH]1)=C\CC[C@@]1(C)O[C@@H]21"
Reply: No

Ask: # outcome recorded in this test, key = "COc1ccc(-c2nnc(N3CCN(C(=O)CN4CCN(c5ccccc5)CC4)CC3)nc2-c2ccc(OC)cc2)cc1"
Reply: Yes

Ask: # outcome recorded in this test, key = COc1cc(C2=NN(c3ccccc3)C(c3cccc(Nc4ccnc5cc(C(F)(F)F)ccc45)c3)C2)cc(OC)c1OC (configuration not stated)
Reply: No

Ask: # outcome recorded in this test, key = "CC1=C(CCCOC(=O)NCCCl)C2=C(C)C3(CC3)[C@@](C)(O)C(=O)C2=C1"
Reply: No

Ask: # outcome recorded in this test, key = "Nc1cccc(C(=O)Nc2ccc3c(O)c(N=Nc4ccc(N=Nc5ccc(S(=O)(=O)O)cc5)cc4)c(S(=O)(=O)O)cc3c2)c1"
Reply: No

Ask: # outcome recorded in this test, key = "O=C(Nc1cc(Nc2ncccc2-c2ncnc3nc[nH]c23)ccc1F)c1cc(C(F)(F)F)cc(C(F)(F)F)c1"
Reply: Yes

Ask: # outcome recorded in this test, key = "O=C(N/N=C/C[C@@H]1[C@@H](/C=C/[C@@H](O)COc2cccc(Cl)c2)[C@H](O)C[C@@H]1O)c1ccncc1"
Reply: No

Ask: # outcome recorded in this test, key = "C=C1C(=O)O[C@H]2[C@H]1CC/C(COC(=O)CCCCC(=O)OC/C1=C/CC[C@@]3(C)O[C@H]3[C@H]3OC(=O)C(=C)[C@@H]3CC1)=C\CC[C@@]1(C)O[C@@H]21"
Reply: No

Ask: # outcome recorded in this test, key = "C=C1C(=O)O[C@H]2[C@H]1CC/C(COC(=O)CCCCCCCC(=O)OC/C1=C/CC[C@@]3(C)O[C@H]3[C@H]3OC(=O)C(=C)[C@@H]3CC1)=C\CC[C@@]1(C)O[C@@H]21"
Reply: No

Ask: # outcome recorded in this test, key = "CSc1nc(-c2ccc(F)cc2)c(C#N)c(N2CCOCC2)n1"
Reply: No

Ask: # outcome recorded in this test, key = "C(=C\c1cn(-c2ccccc2)nc1-c1ccccc1)/c1nnc(-c2c[nH]c3ccccc23)o1"
Reply: No
